Target: PLK1 kinase domain (Homo sapiens, UniProt P53350)
Construct: His-tagged PLK kinase domain (amino acids 21-346 preceded by MKKGHHHHHHD); made in house; host or cells: baculovirus-infected T. ni insect cells
Sequence (P53350 21-346): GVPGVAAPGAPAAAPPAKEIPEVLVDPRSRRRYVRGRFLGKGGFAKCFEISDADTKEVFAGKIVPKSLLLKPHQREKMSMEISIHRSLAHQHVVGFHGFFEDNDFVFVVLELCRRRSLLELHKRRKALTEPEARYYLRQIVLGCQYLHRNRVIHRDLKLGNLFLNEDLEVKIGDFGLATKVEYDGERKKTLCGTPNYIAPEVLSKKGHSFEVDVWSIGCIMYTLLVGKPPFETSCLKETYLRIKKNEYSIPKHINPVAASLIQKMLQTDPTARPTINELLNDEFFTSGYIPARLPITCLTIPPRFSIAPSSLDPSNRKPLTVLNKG
Assay: Assay for inhibition of PLK1 (33P SPA kinase assay)
Format: biochemical
Details: 2 nM PLK1 kinase domain, 1 μM ATP, 1 μM substrate peptide; read-out: PLK1 pIC50 (converted)
Endpoint label: IC50

Inquiry: Give a short answer stating reported IC50 for C[C@@H](Oc1cc(-n2cnc3ccc(CS(C)(=O)=O)cc32)sc1C(N)=O)c1cccc(OC[C@H]2CCCN2C)c1Cl .
Reply text: < 100 nM

Inquiry: Give a short answer stating reported IC50 for CC(Oc1cc(-n2cnc3cc(-c4cnn(C)c4)ccc32)sc1C(N)=O)c1cc(OC2CCN(C)CC2)ccn1 (stereo not shown) .
Reply text: < 100 nM

Inquiry: Give a short answer stating reported IC50 for C[C@@H](Oc1cc(-n2cnc3ccc(S(C)(=O)=O)cc32)sc1C(N)=O)c1cccc(OC2CCNCC2)c1Cl .
Reply text: < 100 nM

Inquiry: Give a short answer stating reported IC50 for C[C@@H](Oc1cc(-n2cnc3cc(S(C)(=O)=O)ccc32)sc1C(N)=O)c1cccc(OC2CCNCC2)c1Cl .
Reply text: < 100 nM
